REPORTED_ENDPOINT: Ki (µM)
All answers are understood in µM, so give the number only.

Kindly note: SARS-CoV-2 PLpro (Severe acute respiratory syndrome coronavirus 2, UniProt P0DTD1), COc1ccc(-c2cc(=O)c3c(O)cc(O)c(-c4cc(-c5cc(=O)c6c(O)cc(O)cc6o5)ccc4O)c3o2)cc1 , Ki value reported: 36.5

Kindly note: SARS-CoV-2 PLpro (Severe acute respiratory syndrome coronavirus 2, UniProt P0DTD1), COc1cc(O)c2c(=O)cc(-c3ccc(OC)c(-c4c(O)cc(O)c5c(=O)cc(-c6ccc(O)cc6)oc45)c3)oc2c1 , Ki value reported: 17.7

Kindly note: SARS-CoV-2 PLpro (Severe acute respiratory syndrome coronavirus 2, UniProt P0DTD1), O=C1c2c(O)cc(O)cc2O[C@H](c2ccc(O)cc2)[C@H]1c1c(O)cc(O)c2c(=O)cc(-c3ccc(O)c(O)c3)oc12 , Ki value reported: 30.7

Kindly note: SARS-CoV-2 PLpro (Severe acute respiratory syndrome coronavirus 2, UniProt P0DTD1), O=c1cc(-c2ccc(O)c(-c3c(O)cc(O)c4c(=O)cc(-c5ccc(O)cc5)oc34)c2)oc2cc(O)cc(O)c12 , Ki value reported: 9.1

Kindly note: SARS-CoV-2 PLpro (Severe acute respiratory syndrome coronavirus 2, UniProt P0DTD1), COc1ccc(-c2cc(=O)c3c(O)cc(O)c(-c4cc(-c5cc(=O)c6c(O)cc(O)cc6o5)ccc4OC)c3o2)cc1 , Ki value reported: 26.5

Kindly note: SARS-CoV-2 PLpro (Severe acute respiratory syndrome coronavirus 2, UniProt P0DTD1), O=c1cc(-c2ccc(Oc3c(O)cc4oc(-c5ccc(O)cc5)cc(=O)c4c3O)cc2)oc2cc(O)cc(O)c12 , Ki value reported: 7.8

Data origin, for the record: paper PMC8506144
